# Measured on: SULT1A3 (Homo sapiens)
# Construct: E. coli–optimized SULT coding regions were inserted into a pGEX-6P expression vector; N-His/GST/MBP triple tag (PreScission-cleavable) (N, cleaved yes); made in house; host or cells: E. coli BL21(DE3)
# Assay notes: Pre-steady-state (stopped-flow fluorescence) binding of PAP to SULT1A3 complexes
# Protocol conditions: PAP binding to complex E·CMP13·Tam; read-out: Kd (koff/kon)
Measurement kind: pKd
Lab note: report pKd as minus log10 of the concentration in molar units, number only.

Lookup: Which pKd reading was recorded for the compound Nc1ncnc2c1ncn2[C@@H]1O[C@H](COP(=O)(O)O)[C@@H](OP(=O)(O)O)[C@H]1O [PAP, 3′-phosphoadenosine-5′-phosphate] ?
Found: 6.46

====

# Measured on: SULT1A3 (Homo sapiens)
# Construct: E. coli–optimized SULT coding regions were inserted into a pGEX-6P expression vector; N-His/GST/MBP triple tag (PreScission-cleavable) (N, cleaved yes); made in house; host or cells: E. coli BL21(DE3)
# Assay notes: Equilibrium binding of PAP to SULT1A3 complexes (intrinsic fluorescence)
# Protocol conditions: PAP binding to complex E
Measurement kind: pKd
Units for pKd: none; it is -log10 of a concentration expressed in mol/L.

Lookup: Query (compound): Nc1ncnc2c1ncn2[C@@H]1O[C@H](COP(=O)(O)O)[C@@H](OP(=O)(O)O)[C@H]1O [PAP, 3′-phosphoadenosine-5′-phosphate] ; field requested: pKd
Found: 6.49

====

# Measured on: SULT1A3 (Homo sapiens, UniProt P0DMM9)
# Construct: E. coli–optimized SULT coding regions were inserted into a pGEX-6P expression vector; N-His/GST/MBP triple tag (PreScission-cleavable) (N, cleaved yes); made in house; host or cells: E. coli BL21(DE3)
# Sequence (P0DMM9 whole entry): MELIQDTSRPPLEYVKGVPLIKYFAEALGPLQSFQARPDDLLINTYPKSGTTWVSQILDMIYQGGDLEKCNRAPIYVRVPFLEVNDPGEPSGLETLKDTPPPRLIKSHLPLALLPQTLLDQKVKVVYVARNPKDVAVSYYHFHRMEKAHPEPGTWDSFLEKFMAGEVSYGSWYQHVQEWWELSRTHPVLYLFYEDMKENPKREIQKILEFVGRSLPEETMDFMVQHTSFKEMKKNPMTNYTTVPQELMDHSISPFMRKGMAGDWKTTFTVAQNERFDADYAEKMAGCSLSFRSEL
# Assay notes: Equilibrium binding of CMP13 to SULT1A3 complexes (intrinsic fluorescence)
# Protocol conditions: complex E (unliganded, cap-open)
Measurement kind: Kd (nM)
Hi! Could you send only the number? It should be in nM, unit omitted.

Lookup: Data request, read-out Kd, for CC(C)Cc1ccc2cc(/C=C/C(N)=O)cnc2n1 [CMP13]
Found: 130

====

# Measured on: SULT1A3 in HME(+) cells (Homo sapiens)
# Construct: HME cells were transfected with plasmid containing the coding region of either SULT1A3 or a negative control
# Sequence (P0DMM9 whole entry): as above
# Assay notes: Ex vivo inhibition of dopamine sulfate (DPS) synthesis in SULT1A3-transfected HME(+) cells
# Protocol conditions: 100 μM DP, 24 h, parentheses 1 SD
Measurement kind: IC50
Enter the number, and then the unit.

Lookup: Please look up its IC50: CC(C)Cc1ccc2cc(CCC(N)=O)ccc2n1
Found: 260 nM

Lookup: Recorded IC50 of CC(C)Cc1ccc2cc(/C=C/C(N)=O)cnc2n1 , please.
Found: 12 nM

====

# Measured on: SULT1A3 (Homo sapiens, UniProt P0DMM9)
# Construct: E. coli–optimized SULT coding regions were inserted into a pGEX-6P expression vector; N-His/GST/MBP triple tag (PreScission-cleavable) (N, cleaved yes); made in house; host or cells: E. coli BL21(DE3)
# Assay notes: Equilibrium binding of PAP to SULT1A3 complexes (intrinsic fluorescence)
# Protocol conditions: PAP binding to complex E·CMP13·Tam
Measurement kind: Kd (nM)
Write the number in nM without appending the unit.

Lookup: Reported Kd for Nc1ncnc2c1ncn2[C@@H]1O[C@H](COP(=O)(O)O)[C@@H](OP(=O)(O)O)[C@H]1O [PAP, 3′-phosphoadenosine-5′-phosphate] : what is it?
Found: 350
